Parameter: IC50. Scope: all listed entries.
Target: full length G2019 human LRRK2 (Homo sapiens, UniProt Q5S007, R50H)
Construct: made in house; host or cells: HEK293 6E cells transduced with BacMam virus (virus generated in Sf9 cells)
Sequence (Q5S007 with tags, fused parts or gaps R50H): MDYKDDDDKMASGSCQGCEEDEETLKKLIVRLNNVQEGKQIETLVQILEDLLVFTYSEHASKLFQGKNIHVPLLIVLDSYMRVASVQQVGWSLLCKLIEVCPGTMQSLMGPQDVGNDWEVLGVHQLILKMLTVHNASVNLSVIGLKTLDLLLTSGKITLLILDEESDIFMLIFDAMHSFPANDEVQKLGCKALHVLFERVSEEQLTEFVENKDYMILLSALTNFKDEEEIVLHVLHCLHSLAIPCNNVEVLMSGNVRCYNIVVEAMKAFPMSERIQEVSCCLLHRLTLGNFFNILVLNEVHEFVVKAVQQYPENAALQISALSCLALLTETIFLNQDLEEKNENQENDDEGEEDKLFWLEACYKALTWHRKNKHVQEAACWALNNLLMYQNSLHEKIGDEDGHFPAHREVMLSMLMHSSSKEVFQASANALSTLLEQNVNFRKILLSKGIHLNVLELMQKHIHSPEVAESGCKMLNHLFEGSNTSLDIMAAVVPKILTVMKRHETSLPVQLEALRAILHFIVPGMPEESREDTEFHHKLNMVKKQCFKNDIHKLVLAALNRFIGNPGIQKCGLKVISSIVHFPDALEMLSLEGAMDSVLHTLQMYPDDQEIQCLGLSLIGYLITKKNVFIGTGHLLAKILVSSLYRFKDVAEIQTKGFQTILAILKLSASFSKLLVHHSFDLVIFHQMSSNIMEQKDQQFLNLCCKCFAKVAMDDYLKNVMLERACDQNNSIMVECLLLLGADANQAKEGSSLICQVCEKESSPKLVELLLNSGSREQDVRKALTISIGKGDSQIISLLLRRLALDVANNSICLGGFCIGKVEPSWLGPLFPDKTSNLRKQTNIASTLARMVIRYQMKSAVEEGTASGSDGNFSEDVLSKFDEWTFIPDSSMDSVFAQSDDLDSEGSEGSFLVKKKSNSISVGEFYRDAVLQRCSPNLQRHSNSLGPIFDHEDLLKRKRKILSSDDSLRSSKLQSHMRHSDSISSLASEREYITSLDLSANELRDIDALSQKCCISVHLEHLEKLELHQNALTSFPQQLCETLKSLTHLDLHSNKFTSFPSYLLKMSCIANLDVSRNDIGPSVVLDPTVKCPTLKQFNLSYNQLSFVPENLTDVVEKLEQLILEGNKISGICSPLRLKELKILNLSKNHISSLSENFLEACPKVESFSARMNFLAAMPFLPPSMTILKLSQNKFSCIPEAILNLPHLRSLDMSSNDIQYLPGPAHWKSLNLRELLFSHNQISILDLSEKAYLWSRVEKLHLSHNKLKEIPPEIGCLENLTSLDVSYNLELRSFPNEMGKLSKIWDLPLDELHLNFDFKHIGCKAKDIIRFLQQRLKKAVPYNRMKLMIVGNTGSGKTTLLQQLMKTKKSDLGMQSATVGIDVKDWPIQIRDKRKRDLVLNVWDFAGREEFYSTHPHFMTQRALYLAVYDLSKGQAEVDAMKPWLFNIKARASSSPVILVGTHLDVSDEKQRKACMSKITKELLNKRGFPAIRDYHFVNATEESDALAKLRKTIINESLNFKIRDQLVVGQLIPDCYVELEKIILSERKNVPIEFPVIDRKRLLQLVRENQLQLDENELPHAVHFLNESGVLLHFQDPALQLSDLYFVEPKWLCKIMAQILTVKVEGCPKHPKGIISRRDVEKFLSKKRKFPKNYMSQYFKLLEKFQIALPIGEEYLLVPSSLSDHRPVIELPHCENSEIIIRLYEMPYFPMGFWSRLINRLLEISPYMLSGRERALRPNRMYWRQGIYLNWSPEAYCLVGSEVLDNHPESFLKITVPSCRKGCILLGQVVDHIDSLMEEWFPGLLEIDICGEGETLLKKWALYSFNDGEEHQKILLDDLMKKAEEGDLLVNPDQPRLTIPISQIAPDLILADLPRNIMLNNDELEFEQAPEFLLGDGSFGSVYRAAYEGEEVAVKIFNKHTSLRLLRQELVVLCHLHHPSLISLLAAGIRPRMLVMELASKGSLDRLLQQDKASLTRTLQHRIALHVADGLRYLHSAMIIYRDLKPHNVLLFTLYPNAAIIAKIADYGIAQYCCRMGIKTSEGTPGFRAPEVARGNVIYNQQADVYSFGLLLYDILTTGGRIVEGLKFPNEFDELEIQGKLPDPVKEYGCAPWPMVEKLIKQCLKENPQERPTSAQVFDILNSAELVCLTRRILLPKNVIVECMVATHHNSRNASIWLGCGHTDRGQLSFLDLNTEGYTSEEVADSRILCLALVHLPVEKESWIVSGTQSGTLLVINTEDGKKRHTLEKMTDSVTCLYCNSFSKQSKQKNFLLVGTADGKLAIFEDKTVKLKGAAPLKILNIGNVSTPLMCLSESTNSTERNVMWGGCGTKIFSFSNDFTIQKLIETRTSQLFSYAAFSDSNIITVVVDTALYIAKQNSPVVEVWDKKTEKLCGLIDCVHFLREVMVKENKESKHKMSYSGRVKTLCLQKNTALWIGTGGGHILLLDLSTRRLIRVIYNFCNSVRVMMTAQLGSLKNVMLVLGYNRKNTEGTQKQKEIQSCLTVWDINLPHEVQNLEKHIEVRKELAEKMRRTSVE
Experiment: Full length G2019 human LRRK2 inhibition mass spectrometry assay
Format: biochemical
Conditions: LRRKtide to phospho-LRRKtide conversion, RapidFire MS, 2 mM ATP

For reference, reported IC50 for Cc1c2c(nn1C1CC(O)C1)OCC[C@@H](C)Nc1nc(ncc1Cl)N2 (stereo partly shown) [E375] stands at ≤ 100 nM

Cc1c2c(nn1C1CC(N3CC4CC3CO4)C1)OCC[C@@H](C)Nc1nc(ncc1Cl)N2 (stereo in doubt) [E318] has a reported IC50 of ≤ 100 nM

Notebook: Cc1c2c(nn1C1CCCN(C3COC3)C1)OCC[C@@H](C)Nc1nc(ncc1Cl)N2 (single isomer, unassigned) [E67] , IC50 read as ≤ 100 nM

Recorded result, Cc1c2c(nn1C(C)(C)C#N)OCCC(C)Nc1nc(ncc1Cl)N2 (single isomer, unassigned) [E43] , IC50: ≤ 10000 nM

Measured IC50 of COCC1CCOc2nn(C3CCOCC3F)c(C)c2Nc2ncc(Cl)c(n2)N1 (single isomer, unassigned) [E356] : ≤ 10000 nM

For reference, reported IC50 for Cc1c2c(nn1C1CCC(N3C[C@H]4C[C@@H]3CO4)CC1)OCCCNc1nc(ncc1Cl)N2 (single isomer, unassigned) [E48] stands at ≤ 100 nM

Now, please, on to the next molecule.
Briefly, IC50 measured for Cc1c2c(nn1C1COCCC1(F)F)OCC[C@@H](C)Nc1nc(ncc1Cl)N2 (single isomer, unassigned) [E304] : ≤ 100 nM

---

Target: full length G2019 human LRRK2 (Homo sapiens, UniProt Q5S007, R50H)
Construct: made in house; host or cells: HEK293 6E cells transduced with BacMam virus (virus generated in Sf9 cells)
Assay: Full length G2019 human LRRK2 inhibition mass spectrometry assay
Format: biochemical
Details: LRRKtide to phospho-LRRKtide conversion, RapidFire MS, 2 mM ATP
value type: IC50

Please review the following examples before continuing.
So the reported IC50 for CCC1CCOc2nn(C3CCOCC3)c(C)c2Nc2ncc(Cl)c(n2)N1 (single isomer, unassigned) [E20] , on full length G2019 human LRRK2 (Homo sapiens, UniProt Q5S007, R50H), turned out to be ≤ 100 nM

Entry "Cc1c2c(nn1C1CCOCC1)OCCCOc1nc(ncc1C(F)(F)F)N2" , tested on full length G2019 human LRRK2 (Homo sapiens, UniProt Q5S007, R50H), has a reported IC50 of ≤ 100 nM

Item "CCN1CCCOc2nn(C3CCOCC3)c(C)c2Nc2ncc(Cl)c1n2" ; assay system full length G2019 human LRRK2 (Homo sapiens, UniProt Q5S007, R50H); IC50 reported as ≤ 10000 nM

Value (IC50, full length G2019 human LRRK2 (Homo sapiens, UniProt Q5S007, R50H)) for record Cc1c2c(nn1C1CCC(C)CC1)OCCCNc1nc(ncc1Cl)N2 (single isomer, unassigned) = ≤ 100 nM

The value of IC50 recorded for Cc1c2c(nn1CCN1CCOCC1)OCCC(C)Nc1nc(ncc1Cl)N2 (single isomer, unassigned) [E213] when tested on full length G2019 human LRRK2 (Homo sapiens, UniProt Q5S007, R50H) reads ≤ 100 nM

Item COC1CNc2nc(ncc2Cl)Nc2c(nn(C3COC3)c2C)OC1 (single isomer, unassigned) [E271] ; assay system full length G2019 human LRRK2 (Homo sapiens, UniProt Q5S007, R50H); IC50 reported as ≤ 10000 nM

Value (IC50, full length G2019 human LRRK2 (Homo sapiens, UniProt Q5S007, R50H)) for record Cc1c2c(nn1C1CCC(N3CCC(F)C3)CC1)OCCCNc1nc(ncc1Cl)N2 (single isomer, unassigned) [E154] = ≤ 100 nM

Note to self: IC50 of Cc1c2c(nn1C1CN(C3CCCOC3)C1)OCC[C@@H](C)Nc1nc(ncc1Cl)N2 (some centres unmarked) with full length G2019 human LRRK2 (Homo sapiens, UniProt Q5S007, R50H) was ≤ 100 nM

# IC50 measured on full length G2019 human LRRK2 (Homo sapiens, UniProt Q5S007, R50H) for item Cc1c2c(nn1C1CCOCC1(C)C)OCC[C@@H](C)Nc1nc(ncc1Cl)N2 (single isomer, unassigned) [E423] = ≤ 100 nM

Form field IC50 for item CCOC1CNc2nc(ncc2Cl)Nc2c(nn(C3CCOCC3)c2C)OC1 (single isomer, unassigned) [E287] on full length G2019 human LRRK2 (Homo sapiens, UniProt Q5S007, R50H): ≤ 100 nM

Continuing:
The compound CCC1CCOc2nn(C3CCOCC3)c(C)c2Nc2ncc(Cl)c(n2)N1 (single isomer, unassigned) [E19] , tested on full length G2019 human LRRK2 (Homo sapiens, UniProt Q5S007, R50H), showed IC50 of ≤ 10000 nM

// IC50 (full length G2019 human LRRK2 (Homo sapiens, UniProt Q5S007, R50H)) for Cc1c2c(nn1C1CCOCC1)OCC(F)C(CF)Nc1nc(ncc1Cl)N2 (centres unmarked) = ≤ 100 nM

Reported IC50 (full length G2019 human LRRK2 (Homo sapiens, UniProt Q5S007, R50H)) for entry "Cc1c2c(nn1C1(C(F)(F)F)CCOCC1)OCC[C@@H](C)Nc1nc(ncc1Cl)N2" is ≤ 100 nM

// returns IC50 for "Cc1c2c(nn1C1CCOCC1)OCCCNc1cc(ncc1Cl)N2" with full length G2019 human LRRK2 (Homo sapiens, UniProt Q5S007, R50H); value = ≤ 100 nM

Hey, full length G2019 human LRRK2 (Homo sapiens, UniProt Q5S007, R50H) data for "CCc1[nH]nc2c1Nc1ncc(Cl)c(n1)N[C@H](C)CCO2" : IC50 came out at ≤ 100 nM

Field IC50 (system: full length G2019 human LRRK2 (Homo sapiens, UniProt Q5S007, R50H)) for entry Cc1c2c(nn1C1CCOCC1)OCCC(CF)Nc1nc(ncc1Cl)N2 (single isomer, unassigned) [E53] = ≤ 10000 nM

Bench note, full length G2019 human LRRK2 (Homo sapiens, UniProt Q5S007, R50H): entry Cc1c2c(nn1C1CC(N3CCOCC3)C1)OCC[C@@H](C)Nc1nc(ncc1Cl)N2 (some centres unmarked) , its IC50 = ≤ 100 nM
